System: Plasma
Assay: Anticoagulant potency in human citreated plasma assessed as concentration required to double activated partial thromboplastin time
Type: functional
Below, each entry is listed with its recorded Activity.
reported_metric: Activity

- input_smiles: "CNc1ccc(-c2ccc(C(=O)N[C@@H](CC(C)C)C(N)=O)cc2C(=O)O)c(C(=O)Nc2cccc(C(N)=O)c2)c1"
  test_value: ">300 µM"
- input_smiles: "CC(C)CNC(=O)c1ccc(-c2ccccc2C(=O)Nc2ccc(C(=N)N)cc2)c(C(=O)O)c1"
  test_value: "4.3 µM"
- input_smiles: "CNc1ccc(-c2ccc(C(=O)N[C@@H](CC(C)C)C(N)=O)cc2C(=O)O)c(C(=O)Nc2ccc(CN)cc2)c1"
  test_value: ">300 µM"
- input_smiles: "CNc1ccc(-c2ccc(C(=O)NCC(C)C)cc2C(=O)O)c(C(=O)Nc2cccc(C(N)=O)c2)c1"
  test_value: ">300 µM"
- input_smiles: "CNc1ccc(-c2ccc(C(=O)N[C@@H](CC(C)C)C(=O)O)cc2C(=O)O)c(C(=O)Nc2cccc(C(N)=O)c2)c1"
  test_value: ">300 µM"

---

Assay system Prothrombin (Homo sapiens); read-out recorded as IC50.

- input_smiles: "CNc1ccc(-c2ccc(C(=O)N[C@@H](CC(C)C)C(N)=O)cc2C(=O)O)c(C(=O)Nc2ccc(CN)cc2)c1"
  IC50: "> 200 µM"
- input_smiles: "CNc1ccc(-c2ccc(C(=O)N[C@@H](CC(C)C)C(=O)O)cc2C(=O)O)c(C(=O)Nc2cccc(C(N)=O)c2)c1"
  IC50: "> 200 µM"
- input_smiles: "CC(C)CNC(=O)c1ccc(-c2ccccc2C(=O)Nc2ccc(C(=N)N)cc2)c(C(=O)O)c1"
  IC50: "> 200 µM"

---

Below, each entry is listed with its recorded pIC50.
Target: Coagulation factor VII (Homo sapiens)
Sequence (P08709 whole entry): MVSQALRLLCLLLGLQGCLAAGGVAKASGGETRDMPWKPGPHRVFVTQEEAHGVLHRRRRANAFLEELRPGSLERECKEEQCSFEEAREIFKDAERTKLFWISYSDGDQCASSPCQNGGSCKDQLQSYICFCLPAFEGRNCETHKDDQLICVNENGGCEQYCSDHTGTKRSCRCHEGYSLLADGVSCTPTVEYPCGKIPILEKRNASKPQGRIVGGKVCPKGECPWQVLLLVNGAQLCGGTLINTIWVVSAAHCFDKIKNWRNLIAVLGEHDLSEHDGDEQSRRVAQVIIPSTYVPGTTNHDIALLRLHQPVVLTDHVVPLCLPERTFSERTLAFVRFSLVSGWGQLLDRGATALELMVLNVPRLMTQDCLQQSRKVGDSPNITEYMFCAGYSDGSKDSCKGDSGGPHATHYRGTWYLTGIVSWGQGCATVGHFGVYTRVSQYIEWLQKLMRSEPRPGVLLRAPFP
Test: Inhibition of human TF/FVIIa complex by chromogenic assay
pIC50: −log10 of the molar value.

- input_smiles: "CNc1ccc(-c2ccc(C(=O)N[C@@H](CC(C)C)C(N)=O)cc2C(=O)O)c(C(=O)Nc2cccc(C(N)=O)c2)c1"
  pIC50: 6.74
- input_smiles: "CC(C)C[C@H](CO)NC(=O)c1ccc(-c2ccccc2C(=O)Nc2cccc(C(N)=O)c2)c(C(=O)O)c1"
  pIC50: 3.72
- input_smiles: "CC(C)C[C@H](NC(=O)c1ccc(-c2ccccc2C(=O)Nc2cccc(C(N)=O)c2)c(C(=O)O)c1)C(N)=O"
  pIC50: 5.38
- input_smiles: "CNc1ccc(-c2ccc(C(=O)N[C@@H](CC(C)C)C(=O)O)cc2C(=O)O)c(C(=O)Nc2cccc(C(N)=O)c2)c1"
  pIC50: 6.82
- input_smiles: "CNc1ccc(-c2ccc(C(=O)NCC(C)C)cc2C(=O)O)c(C(=O)Nc2cccc(C(N)=O)c2)c1"
  pIC50: 6.16
- input_smiles: "CCCCNc1ccc(-c2ccc(C(=O)N[C@@H](CC(C)C)C(N)=O)cc2C(=O)O)c(C(=O)Nc2cccc(C(N)=O)c2)c1"
  pIC50: 5.66
- input_smiles: "CC(C)C[C@H](NC(=O)c1ccc(-c2ccccc2C(=O)Nc2cccc(C(N)=O)c2)c(C(=O)O)c1)C(=O)N(C)C"
  pIC50: 5.49
- input_smiles: "CC(C)C[C@H](NC(=O)c1ccc(-c2ccc(NC3CCCCC3)cc2C(=O)Nc2cccc(C(N)=O)c2)c(C(=O)O)c1)C(N)=O"
  pIC50: 4.04
- input_smiles: "CC(C)CNC(=O)c1ccc(-c2ccccc2C(=O)Nc2ccc(C(=N)N)cc2)c(C(=O)O)c1"
  pIC50: 7.05
- input_smiles: "CNc1ccc(-c2ccc(C(=O)N[C@H](CO)CC(C)C)cc2C(=O)O)c(C(=O)Nc2cccc(C(N)=O)c2)c1"
  pIC50: 6.52
- input_smiles: "CNc1ccc(-c2ccc(C(=O)N[C@H](CO)CC(C)C)cc2C(=O)O)c(C(=O)Nc2ccc(CN)cc2)c1"
  pIC50: 5.89
